tgt: Phosphatidylinositol 4-kinase beta (Homo sapiens) (UniProt Q9UBF8)
Sequence (Q9UBF8 2-816 limits assumed): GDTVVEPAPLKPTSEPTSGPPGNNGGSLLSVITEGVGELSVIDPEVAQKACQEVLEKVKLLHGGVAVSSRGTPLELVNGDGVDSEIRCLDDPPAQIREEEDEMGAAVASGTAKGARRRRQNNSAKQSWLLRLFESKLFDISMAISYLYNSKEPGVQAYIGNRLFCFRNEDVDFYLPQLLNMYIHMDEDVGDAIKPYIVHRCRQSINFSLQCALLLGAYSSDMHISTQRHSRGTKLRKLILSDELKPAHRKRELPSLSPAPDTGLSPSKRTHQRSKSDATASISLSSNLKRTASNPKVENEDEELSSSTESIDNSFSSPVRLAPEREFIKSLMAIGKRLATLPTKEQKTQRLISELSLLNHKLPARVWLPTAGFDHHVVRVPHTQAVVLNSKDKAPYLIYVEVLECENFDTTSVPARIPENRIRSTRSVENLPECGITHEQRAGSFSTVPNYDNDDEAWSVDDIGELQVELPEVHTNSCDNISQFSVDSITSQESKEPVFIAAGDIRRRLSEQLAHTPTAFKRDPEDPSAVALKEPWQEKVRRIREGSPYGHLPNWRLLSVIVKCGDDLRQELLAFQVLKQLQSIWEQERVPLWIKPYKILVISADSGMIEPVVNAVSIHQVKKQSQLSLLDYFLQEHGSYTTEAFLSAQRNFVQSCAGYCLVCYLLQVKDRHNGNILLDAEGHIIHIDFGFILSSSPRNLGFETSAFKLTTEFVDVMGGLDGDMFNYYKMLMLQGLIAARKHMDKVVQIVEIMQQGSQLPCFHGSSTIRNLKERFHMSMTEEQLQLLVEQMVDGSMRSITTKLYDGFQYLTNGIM
testContext: at 1 µM;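 further: values are mean percent inhibition of PI4K-beta activity, averaged over replicate measurements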
outcomeMeasure: inhibition (%)
The answer is to be given in %; state only the numeric part.

chemicalString: Fc1ccc(-c2c(-c3ccncc3)nc3n2CCS3)cc1
inhibition (%): 1.12
//
chemicalString: O=C(Nc1n[nH]c2nc(-c3ccc(O)cc3)c(Br)cc12)C1CC1
inhibition (%): 3.27

QUERY: Using known records, supply inhibition for `FC(F)(F)c1cccc(Nc2nccc(-c3cnn4nc(-c5ccccc5)ccc34)n2)c1`
RESULT: -1.63

QUERY: Using known records, supply inhibition for `O=C1NC(=O)C(c2cccc(Cl)c2)=C1Nc1ccc(Cl)c(C(=O)O)c1`
RESULT: -0.07

QUERY: Using known records, supply inhibition for `NS(=O)(=O)c1ccc(N/N=C2\C(=O)Nc3ccc(-c4cnco4)cc32)cc1`
RESULT: 2.18
